# Organism: Homo sapiens
# Measurement Notes: Binding affinity to human 5'-FAM/3'-TAMRA labeled telomere 21 G-quadruplex DNA assessed as increase in melting temperature by FRET assay
Activity calls are given as the source filed them. No cut-off for these calls is given here.
Just give me one of these, please: YES = active, NO = inactive

A selection of reference data follows.
• N=C(N)N/N=C/c1ccc2c(/C=N/NC(=N)N)c(Cl)n(-c3ccccc3)c2c1 = YES
• C(=N\NC1=NCCN1)/c1c(-c2ccccc2)nc2n1ccc1nc(-c3ccccc3)c(/C=N/NC3=NCCN3)n12 = YES
• Br.O=Cc1c(-c2ccccc2)nc2n1ccc1nc(-c3ccccc3)c(/C=N/NC3=NCCN3)n12 = YES
• Cn1c(Cl)c(/C=N/NC(=N)N)c2cc3c(/C=N/NC(=N)N)c(Cl)n(C)c3cc21 = YES
• CN1C(=C2\C(=N\NC(=N)N)c3ccccc3N2C)/C(=N/NC(=N)N)c2ccccc21 = NO
• C(=N\Nc1ccccn1)/c1c(-c2ccccc2)nc2n1ccc1nc(-c3ccccc3)c(/C=N/Nc3ccccn3)n12 = NO
• N=C(N)N/N=C/c1c(-c2ccsc2)nc2n1ccc1nc(-c3ccsc3)c(/C=N/NC(=N)N)n12 = YES
• N=C(N)N/N=C/c1c(-c2ccccc2)nc2ccn3c(/C=N/N=C(N)N)c(-c4ccccc4)nc3n12 = YES

Input line: Entry Cn1c(Cl)c(/C=N/NC(=N)N)c2ccc(/C=N/NC(=N)N)cc21 : call = ?
Output line: YES

Input line: Entry CN1C(=C2\C(=N\Nc3ccccn3)c3ccccc3N2C)/C(=N/Nc2ccccn2)c2ccccc21 : call = ?
Output line: NO

* * *

# Measurement Notes: Binding affinity to synthetic telomere 26 G-quadruplex DNA assessed as change in melting temperature at 4 mol equiv in presence of 100 mM KCl buffer by circular dichroism spectroscopic analysis
Below: a set of entries, each annotated with reported ΔTm.
Entry format: amount then unit.

# count of solved cases: 4
• Br.O=Cc1c(-c2ccccc2)nc2n1ccc1nc(-c3ccccc3)c(/C=N/NC3=NCCN3)n12 = -3 °C
• Cn1c(Cl)c(/C=N/NC(=N)N)c2cc3c(/C=N/NC(=N)N)c(Cl)n(C)c3cc21 = 1.3 °C
• N=C(N)N/N=C/c1c(-c2ccccc2)nc2ccn3c(/C=N/N=C(N)N)c(-c4ccccc4)nc3n12 = -4.5 °C
• CN1C(=C2\C(=N\NC(=N)N)c3ccccc3N2C)/C(=N/NC(=N)N)c2ccccc21 = 0.2 °C

// switching to the query compound
Input line: In one line, give reported ΔTm of the entry N=C(N)N/N=C/c1ccc2c(/C=N/NC(=N)N)c(Cl)n(-c3ccccc3)c2c1 .
Output line: 5.1 °C

* * *

# Measurement Notes: Binding affinity to synthetic telomere 23 G-quadruplex DNA assessed as change in melting temperature at 4 mol equiv in presence of 100 mM KCl buffer by circular dichroism spectroscopic analysis
Label key: yes means ΔTm under -0.5 °C; no means ΔTm of -0.5 °C or more.

* Cn1c(Cl)c(/C=N/NC(=N)N)c2ccc(/C=N/NC(=N)N)cc21 | no
* Br.O=Cc1c(-c2ccccc2)nc2n1ccc1nc(-c3ccccc3)c(/C=N/NC3=NCCN3)n12 | yes
* N=C(N)N/N=C/c1c(-c2ccccc2)nc2ccn3c(/C=N/N=C(N)N)c(-c4ccccc4)nc3n12 | yes
* CN1C(=C2\C(=N\Nc3ccccn3)c3ccccc3N2C)/C(=N/Nc2ccccn2)c2ccccc21 | yes
* C(=N\NC1=NCCN1)/c1c(-c2ccccc2)nc2n1ccc1nc(-c3ccccc3)c(/C=N/NC3=NCCN3)n12 | yes
* C(=N\Nc1ccccn1)/c1c(-c2ccccc2)nc2n1ccc1nc(-c3ccccc3)c(/C=N/Nc3ccccn3)n12 | yes
* N=C(N)N/N=C/c1c(-c2ccsc2)nc2n1ccc1nc(-c3ccsc3)c(/C=N/NC(=N)N)n12 | yes
* Cn1c(Cl)c(/C=N/NC(=N)N)c2cc3c(/C=N/NC(=N)N)c(Cl)n(C)c3cc21 | no

// switching to the query molecule
Input line: Confirm or reject: ΔTm of N=C(N)N/N=C/c1ccc2c(/C=N/NC(=N)N)c(Cl)n(-c3ccccc3)c2c1 lies strictly below -0.5 °C
Output line: no

Values from ChEMBL document CHEMBL3826876
